// data source = ChEMBL document CHEMBL1201862

system: A498; experiment: NCI tumour cell line growth inhibition, 48 h
Activity calls are given as the source filed them. Rule as the data show it: active = GI50 up to about 1.1 µM and inactive = higher. Starred links: 1 amine or outer side, 2 acyl side, 3 side chain; linkers in the order of their positions; H or OH if unused. Positions of bridges follow the written chain, without caps; N, C: chain ends. Non-standard residues stand in square brackets, D forms with d. Residues, ends and D or L forms follow the SMILES beside them. ξ: configuration not given here. X37 = CC[C@H](C)[C@@H](N[*:1])[C@@H](O)CC(=O)O[C@H](C(=O)[C@H](C)C(=O)[*:2])C(C)C; NMeY = CN[C@@H](Cc1ccc(O)cc1)C(=O)O; dNMeL = CN[C@H](CC(C)C)C(=O)O; ξΔPro = O=C(O)C1C=CCN1
Select the correct class. Options are active, inactive and nothing else.

compound	label.class
COc1cccc2c1CCc1ccccc1CC2=O	inactive
Cc1ccc(S(=O)(=O)NC(=O)Nc2c(S(N)(=O)=O)cc(S(N)(=O)=O)c(Cl)c2Cl)cc1	inactive
Nc1nc(OCc2ccccc2)c2nc[nH]c2n1 [6-O-BENZYLGUANINE]	inactive
CC[C@H](C)[C@H]1NC(=O)[C@@H](NC(=O)[C@@H](CC(C)C)N(C)C(=O)C2C=CCN2)[C@@H](C)OC(=O)[C@H](Cc2ccc(OC)cc2)N(C)C(=O)[C@@H]2CCCN2C(=O)[C@H](CC(C)C)NC(=O)[C@@H](C)C(=O)[C@H](C(C)C)OC(=O)C[C@@H]1O (some centres not stated) (H-[ξΔPro][dNMeL]T[X37]LP[NMeY](Me); ester 3-C)	active

Lab log entry: COc1c2c3c4c(c(OC)c(=O)c5c(O)cc(OC)c(c6c(OC)cc(O)c(c1=O)c63)c54)C(C(C)O)C2C(C)O (configuration not stated) — outcome as called in the assay?
active

Lab log entry: Cc1cc2c(cc1Cl)SC(NNC1=NCCN1)=NS2(=O)=O — outcome as called in the assay?
inactive

Lab log entry: CC1(C)OCC(C2OC(C)(C)OC2[C@H]2O[C@@]3(O)[C@H]4[C@H](C=CC[C@@H]42)[C@@H](OCc2ccccc2)[C@H](OCc2ccccc2)[C@H]3OCc2ccccc2)O1 (some centres not stated) — outcome as called in the assay?
inactive

Lab log entry: O=[N+]([O-])/C=C(\CS(=O)(=O)c1ccccc1)c1ccc2c(c1)OCO2 — outcome as called in the assay?
inactive

Lab log entry: COc1cccc(C=C2N=C(c3ccccc3)N(n3c(-c4ccccc4)nc4ccccc4c3=O)C2=O)c1 — outcome as called in the assay?
inactive
